Numbers sourced from the Kinase Knowledgebase extract (Sharma et al. 2016).

assayed.target: EGFR (human), P00533 [L858R]
Sequence (P00533 whole entry L858R, looked up): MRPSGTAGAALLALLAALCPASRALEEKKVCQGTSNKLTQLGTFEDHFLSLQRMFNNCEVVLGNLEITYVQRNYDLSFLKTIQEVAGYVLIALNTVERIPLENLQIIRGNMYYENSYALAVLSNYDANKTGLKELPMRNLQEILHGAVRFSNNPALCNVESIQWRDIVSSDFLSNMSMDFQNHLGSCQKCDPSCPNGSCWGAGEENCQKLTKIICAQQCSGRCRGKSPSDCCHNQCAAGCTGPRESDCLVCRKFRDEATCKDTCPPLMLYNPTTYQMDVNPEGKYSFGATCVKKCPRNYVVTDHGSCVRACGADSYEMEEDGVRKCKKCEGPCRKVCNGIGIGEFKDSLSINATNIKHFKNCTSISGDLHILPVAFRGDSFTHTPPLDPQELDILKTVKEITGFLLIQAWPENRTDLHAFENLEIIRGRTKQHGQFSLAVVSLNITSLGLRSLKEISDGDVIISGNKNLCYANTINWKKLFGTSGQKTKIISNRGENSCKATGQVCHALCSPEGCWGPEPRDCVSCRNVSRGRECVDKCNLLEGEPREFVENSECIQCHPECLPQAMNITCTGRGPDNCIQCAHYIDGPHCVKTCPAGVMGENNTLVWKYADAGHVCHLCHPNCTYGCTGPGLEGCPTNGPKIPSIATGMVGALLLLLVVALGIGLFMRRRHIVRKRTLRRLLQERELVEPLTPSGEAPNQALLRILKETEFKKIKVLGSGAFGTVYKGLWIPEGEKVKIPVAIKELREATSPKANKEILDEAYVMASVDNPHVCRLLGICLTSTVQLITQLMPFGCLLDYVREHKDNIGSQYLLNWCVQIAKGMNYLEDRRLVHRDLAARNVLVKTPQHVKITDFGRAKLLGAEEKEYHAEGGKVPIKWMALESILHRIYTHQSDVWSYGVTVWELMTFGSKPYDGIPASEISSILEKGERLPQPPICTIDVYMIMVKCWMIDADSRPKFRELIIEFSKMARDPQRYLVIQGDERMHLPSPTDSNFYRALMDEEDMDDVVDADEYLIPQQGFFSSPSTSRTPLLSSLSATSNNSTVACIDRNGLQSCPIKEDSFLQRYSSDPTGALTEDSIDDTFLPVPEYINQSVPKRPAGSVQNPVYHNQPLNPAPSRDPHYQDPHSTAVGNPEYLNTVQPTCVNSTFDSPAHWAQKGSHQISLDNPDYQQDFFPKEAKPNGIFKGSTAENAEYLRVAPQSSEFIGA
protocol.notes: Enzyme Assay
Measured IC50 of individual entries
assay.readout: IC50

compound: COc1cc(CO)ccc1-c1cc2c(N[C@H](CO)c3ccccc3)ncnc2s1
assay.readout: IC50
result.value: 300 pM
--
compound: COc1cc(CO)ccc1-c1cc2c(N[C@H](C)c3ccccc3)ncnc2s1
assay.readout: IC50
result.value: 700 pM
--
compound: OC[C@@H](Nc1ncnc2[nH]c(-c3ccccc3)cc12)c1ccccc1
assay.readout: IC50
result.value: 1300 pM
--
compound: COc1cc(CO)ccc1-c1cc2c(NCc3ccccc3)ncnc2[nH]1
assay.readout: IC50
result.value: 800 pM
--
compound: OCc1ccc(-c2cc3c(N[C@H](CO)c4ccccc4)ncnc3[nH]2)cc1
assay.readout: IC50
result.value: 400 pM
--
compound: COc1ccccc1-c1cc2c(N[C@H](C)c3ccccc3)ncnc2s1
assay.readout: IC50
result.value: 7710 pM
--
compound: COc1ccccc1-c1cc2c(N[C@H](CO)c3ccccc3)ncnc2[nH]1
assay.readout: IC50
result.value: 100 pM
--
compound: COc1cc(CO)ccc1-c1cc2c(N[C@H](C)c3ccccc3)ncnc2[nH]1
assay.readout: IC50
result.value: 400 pM
--
compound: COc1ccccc1-c1cc2c(N[C@H](CO)c3ccccc3)ncnc2s1
assay.readout: IC50
result.value: 1300 pM
--
compound: COc1cc(C=O)ccc1-c1cc2c(N[C@H](C)c3ccccc3)ncnc2s1
assay.readout: IC50
result.value: 4300 pM
--
compound: COc1cc(CO)ccc1-c1cc2c(N[C@H](CO)c3ccc(F)cc3)ncnc2[nH]1
assay.readout: IC50
result.value: 600 pM
--
compound: OCc1ccc(-c2cc3c(N[C@H](CO)c4ccccc4)ncnc3s2)cc1
assay.readout: IC50
result.value: 2300 pM
--
compound: COc1cc(C=O)ccc1-c1cc2c(N[C@H](CO)c3ccccc3)ncnc2s1
assay.readout: IC50
result.value: 900 pM
